Test system: SK-MEL-28
TEST_PROTOCOL: NCI tumour cell line growth inhibition, 48 h
Activity calls are given as the source filed them. Rule as the data show it: active = GI50 up to about 1.1 µM and inactive = higher. Where a SMILES comes first, the peptide text is derived from it. The star is where a group is joined. Boc = CC(C)(C)OC(=O)*; nBu = CCCC*
Choose the fitting class; nothing outside active, inactive is accepted.

Query: Which result was noted for this compound in the test: `CC1=C[C@]2(O)C(=O)[C@H](C)C[C@H]3[C@@H](CC[C@@](C)(O)/C=C\2C1=O)C3(C)C`
Result: inactive

Query: # fetch the recorded call for CCCCOc1ccc(CC(NC(=O)OC(C)(C)C)C(=O)NC(C)C(=O)NC(Cc2ccccc2)C(=O)NCC(N)=O)cc1 (stereo not given) (Boc-Y(nBu)AFG-NH2; configuration not given here) here
Result: inactive

Query: Tell me the assay call for C/C(=C1\C(=O)C(c2ccccc2)N(c2ccccc2)C1=O)c1ccc(Cl)cc1 (stereo not given) please.
Result: inactive

Query: Write down the call the test reported for this compound. Item: C[N+]1(Cc2ccc(Cl)c(Cl)c2)CCCC1C1CCCN(Cc2ccc(Cl)c(Cl)c2)C1 (stereo not given)
Result: inactive

Query: Any idea what this test logged for `CC1(C)CCCOc2cccc(c2)OCCCC(C)(C)C1=O` ?
Result: inactive

Query: Status in this test for CC1(C)CC2(C)CC1CC2O (stereo not given) ?
Result: inactive

Query: Please let me know the test result on file for `CN=[S+]([O-])(c1ccccc1)c1ccccc1` .
Result: inactive

Query: Could you kindly confirm the outcome this assay logged for `Cc1ccc(Oc2ccc(C)cc2N)cc1` ?
Result: inactive

Query: Could you kindly confirm the outcome this assay logged for `COc1ccc(NC2=CC(=O)C(=O)c3ccccc32)nn1` ?
Result: active

Query: // return assay outcome for CCCCOC(=O)C(=O)C(CC(C(=O)Cc1ccccc1)c1ccccc1)C(=O)C=C(C)C (stereo not given)
Result: inactive

* * *

System: KM-20L2
TEST_PROTOCOL: NCI tumour cell line growth inhibition, 48 h
Calls of active or inactive are those of the source. Cut-off read from the data, not from the text of the source: active = GI50 up to about 1.1 µM and inactive = higher.
Would you kindly list GI50 for each of these compounds?

Query: Which GI50 value belongs to `CCCN1CC=CCC1` ?
Result: > 100 µM (inactive)

Query: For the compound shown here, `Oc1cc(-c2ccccn2)nc2cccc(F)c12` , give the reported GI50.
Result: > 100 µM (inactive)

Query: May I ask what GI50 has been recorded for `NC(=S)N/N=C(\CCC(=O)Nc1ccccc1[N+](=O)[O-])CC(=O)c1ccco1` ?
Result: > 100 µM (inactive)

Query: Request the reported GI50 associated with `CCCCC#CS(=O)(=O)C(F)(F)F`
Result: 81.5 µM (inactive)

Query: Dear colleague, I am looking for the recorded GI50 of the following compound: `COc1ccc2nc(-c3ccc(OCc4ccccc4)cc3)ccc2c1`
Result: > 100 µM (inactive)

Query: # lookup: GI50 of O=C(COc1ccccc1Cl)N1N=C(c2ccccc2)CC1(O)c1ccccc1 (stereo unspecified)
Result: 16.1 µM (inactive)

* * *

System: HCT-15
GI50 vs 30 µM: less than gives Fulfilled; not less than gives Not fulfilled.

Query: I wonder whether CC(=O)c1ccc2c(c1)CC1(C2)Cc2cc3c(c(C(=O)O)c2C1)CCC3 (configuration not stated) has GI50 below 30 µM. Can you tell?
Result: Not fulfilled

Query: In the record for `COc1ccc2c3c([nH]c2c1)CCN(CCCC(=O)c1ccc(F)cc1)C3` , is GI50 less than 30 µM?
Result: Fulfilled

Query: A record lists `C#CCOC(=O)[C@@H](C)c1ccc2cc(OC)ccc2c1` . Is its GI50 below 30 µM?
Result: Fulfilled

Query: Please determine if COc1ccc(C2C3CCCC(C3=O)C(c3ccc(OC)cc3)N2N=O)cc1 (configuration not stated) is below 30 µM in terms of GI50.
Result: Not fulfilled

Query: Does the reported GI50 of the following compound sit strictly below 30 µM? `NC(=S)N/N=C(\CCC(=O)Nc1ccccc1[N+](=O)[O-])CC(=O)c1ccco1`
Result: Not fulfilled

Query: Record CCC1CN2CCC3(c4ccccc4)CC(C(=O)OC)=CC1C23 (configuration not stated) : is its GI50 strictly below 30 µM?
Result: Fulfilled

Query: Confirm or reject: GI50 of CCCCCCCC/C=C/CCCCCCCC(=O)N(O)C1CC(n2cc(C)c(=O)[nH]c2=O)OC1CO (configuration not stated) lies strictly below 30 µM
Result: Fulfilled

Query: Quick check: does CC(=O)OC12/C(=N/O)CCCCCC1c1ccccc12 (configuration not stated) have GI50 under 30 µM?
Result: Not fulfilled

Query: Identify whether the compound C[C@]12CC[C@H]3[C@@H](CCC4=C[C@@H](OC5OCC(OC6OC(CO)C(O)C(O)C6O)C(O)C5O)CC[C@@]43C=O)[C@@]1(O)CCC2C1=CC(=O)OC1 (some centres not stated) records GI50 below 30 µM.
Result: Fulfilled

Query: Consider the compound `Nc1ccc(-c2nc3ccccc3s2)cc1C(F)(F)F` . Is its GI50 strictly less than 30 µM?
Result: Fulfilled

Query: Field: below-cutoff. Rule: recorded GI50 strictly less than 30 µM. Subject: COc1cc([C@@H]2c3cc4c(cc3[C@@H](OC(=O)c3cccc(N)c3)C3COC(=O)[C@@H]32)OCO4)cc(OC)c1O (some centres not stated)
Result: Fulfilled

Query: For `COc1ccc(C(=O)Cc2c(C(=O)c3ccccc3)c3ccccc3n2C(=O)c2ccccc2)cc1` , is the recorded GI50 below the cut-off of 30 µM?
Result: Not fulfilled

Query: I wonder whether `c1csc(-c2cc(-c3ccsc3)c(-c3ccsc3)s2)c1` has GI50 below 30 µM. Can you tell?
Result: Fulfilled

Query: For this compound, is GI50 lower than 30 µM? `CC(=O)/C(=C/N1CCNC1=S)C(=O)Nc1ccccc1C`
Result: Not fulfilled

Query: For `O=C(NCCCCCCNC(=O)c1cccc2ccccc12)Nc1cccc2ccccc12` , is the recorded GI50 below the cut-off of 30 µM?
Result: Not fulfilled

Query: Answer whether the compound C/C=C/OC1C(C2COC(C)(C)O2)OC2OC(C)(C)OC21 (configuration not stated) has GI50 strictly less than 30 µM
Result: Not fulfilled

Query: GI50 strictly < 30 µM for this compound? `Cc1cc(=O)n2nc(CN3CCCCC3)sc2n1`
Result: Not fulfilled

Query: Here's an entry: COC1OC(COCc2ccc(Cl)cc2)C(OCc2ccc(Cl)cc2)C1N=[N+]=[N-] (configuration not stated) . Is its GI50 below 30 µM?
Result: Not fulfilled

Query: Report whether reported GI50 is lower than 30 µM (strictly) for `Cc1cc(N(CCC#N)CCC#N)ccc1/C=C1N=C(/C=C/c2ccccc2)N(c2ccc(S(N)(=O)=O)cc2)C\1=O`
Result: Not fulfilled

Query: Would you kindly verify if GI50 of `COc1ccc(NC2=CC(=O)C(=O)c3ccccc32)nn1` is strictly less than 30 µM?
Result: Fulfilled

Query: hey, is GI50 for `S=C1Cc2cc3ccccc3nc2-c2ccccc2N1` lower than 30 µM or not?
Result: Not fulfilled

* * *

System: HT-29
TEST_PROTOCOL: NCI tumour cell line growth inhibition, 48 h
The source made the active and inactive calls. Cut-off read from the data, not from the text of the source: active = GI50 up to about 1.1 µM and inactive = higher.
Consider the following compounds; for each one, report its GI50.

Query: Please report the recorded GI50 for `C[C@H](CCC(=O)O)[C@H]1CC[C@H]2[C@@H]3[C@H](O)C[C@@H]4C[C@H](O)CC[C@]4(C)[C@H]3C[C@H](O)[C@]12C` .
Result: > 100 µM (inactive)

Query: # get_value(readout='GI50', item= C=C(CC[C@@H](C)[C@H]1CC[C@@]2(C)C3=C(CC[C@]12C)[C@@]1(C)CC[C@H](O)[C@@H](C)C1CC3)C(C)C (stereo partly specified) )
Result: 0.48 µM (active)

Query: May I ask what GI50 has been recorded for `CCCSCC(P(=O)(O)O)P(=O)(O)O.NC1CCCCC1` ?
Result: > 100 µM (inactive)

Query: Requested field: GI50. Item: `CCOC(=O)C(=O)Nc1cc(Cl)ccc1Cl`
Result: > 100 µM (inactive)

Query: Find the recorded GI50 belonging to `CCCCCCCCCCCCCCCCc1c(O)nc(NC#N)nc1C(=O)OC` and report it.
Result: > 25 µM (inactive)

Query: Which value of GI50 has been reported for COc1cccc2c1C(=O)c1c(O)c3c(c(O)c1C2=O)C[C@@](O)(C(C)=O)CC3S(=O)(=O)O (stereo partly specified) in the records?
Result: > 100 µM (inactive)

Query: # GI50 lookup, item `CC1C2=CC=C(O2)C(C)(C)C2=CC=C(O2)C(C)(C)C2=CC=C(O2)C(C)(C)C2=CC=C1O2`
Result: > 100 µM (inactive)

Query: Would you kindly share the measured GI50 for O=C(CC(c1ccccc1)c1c(O)c2ccccc2oc1=O)c1ccccc1 (stereo unspecified) ?
Result: > 94.8 µM (inactive)

Query: I'd like to know its GI50. The compound in question is `CC(=O)OCCOCCN1CCN(C2=C(Cl)C(=O)c3c(O)ccc(O)c3C2=O)CC1`
Result: 0.796 µM (active)

Query: Record request: GI50 value, item CC(=C(C(N)=O)C(N)=O)C1C=C(c2cccs2)CC(c2ccc(Cl)cc2)=C1O (stereo unspecified)
Result: 39.8 µM (inactive)

Query: # get_value(readout='GI50', item= `Cn1nnc2c(C(N)=S)ncn2c1=O` )
Result: > 100 µM (inactive)

Query: Quick check: GI50 of Cc1ccc(O)c(C2=NNC(c3cccc(Cl)c3)C2)c1 (stereo unspecified) ?
Result: 54.8 µM (inactive)

Query: // lookup GI50 for `O=C1c2ccccc2C(=O)C1(O)c1c[nH]c2ccccc12`
Result: > 100 µM (inactive)

Query: What does the record list as GI50 for COC(=O)C1=C(C)N2CCCOC2(C)C(C(=O)OC)C1c1cccc(Cl)c1 (stereo unspecified) ?
Result: 22.2 µM (inactive)

Query: Entry `CC1=NN(c2ccccc2)C(=O)C1=C1SCCS1` : reported GI50 = ?
Result: > 74.5 µM (inactive)

Query: Would you kindly share the measured GI50 for `CCCCCCCC(=O)OC[C@@H](C[As](=O)(O)O)OC(=O)CCCCCCC` ?
Result: 14.1 µM (inactive)

Query: Recorded GI50 for `O=C(Sc1c(-c2ccccc2)c(=O)n(-c2ccccc2)c(=S)n1-c1ccccc1)c1ccco1` , please?
Result: > 100 µM (inactive)

Query: Recorded GI50 for `COC(=O)c1nc(-c2ccc3c(n2)C(=O)C(=N)C(OC)=C3O)c(N)c(-c2ccc(OC)c(OC)c2O)c1C` , please?
Result: 1.73 µM (inactive)

Query: # lookup: GI50 of `CC1(C)N=c2c(ncn2CCO)=C(C(N)=O)N1`
Result: > 100 µM (inactive)

Query: Need GI50, item COc1ccc(NC(=O)C(=O)C(CC2C(=O)NC(=S)NC2=O)C(=O)c2ccc3ccccc3c2)c([N+](=O)[O-])c1 (stereo unspecified)
Result: > 100 µM (inactive)

Query: Returns the measured GI50 for the input compound. Input: CCCCCCCC/C=C/CCCCCCCC(=O)N(O)C1CC(n2cc(C)c(=O)[nH]c2=O)OC1CO (stereo unspecified)
Result: 10.2 µM (inactive)

Query: May I ask what GI50 has been recorded for CCOC(=O)C(CC(C)C)NC(=O)C(Cc1ccc(N(CCCl)CCCl)cc1)NC(C)=O (stereo unspecified) ?
Result: 11.7 µM (inactive)

Query: Quick one: GI50 of COC(=O)C(=O)C(C(C)=O)C(=O)NCc1ccccc1 (stereo unspecified) ?
Result: > 100 µM (inactive)

Query: Look up GI50 for this compound: `Brc1ccc(C2(N3CCCCC3)CCCCC2)s1`
Result: 23.5 µM (inactive)

Query: // lookup GI50 for `O=c1o[nH]/c(=N/c2ccccc2)n1-c1ccccc1`
Result: > 100 µM (inactive)

Query: Bench note: what GI50 did CC(=O)OC12/C(=N/O)CCCCCC1c1ccccc12 (stereo unspecified) show?
Result: > 100 µM (inactive)

Query: // returns reported GI50 for input `COC(=O)c1cc(C#N)[nH]c1-c1cc(Br)cs1`
Result: 14.2 µM (inactive)

Query: Give the measured GI50 of `Cc1cc(C)nc(NS(=O)(=O)c2ccc(Nc3c4ccccc4nc4c(C(=O)Nc5ccc(S(=O)(=O)Nc6cc(C)on6)cc5)cccc34)cc2)n1` .
Result: 19.9 µM (inactive)

Query: Looking for the measured GI50 of `CCCN(CCC)C(=S)N/N=C/c1cccc(C)n1` , can you help?
Result: < 0.01 µM (active)

Query: Which value of GI50 has been reported for `Oc1ccccc1-c1n[nH]c(-c2ccccc2O)n1` in the records?
Result: 3.91 µM (inactive)

Query: // lookup GI50 for `O=C(O)CNS(=O)(=O)c1ccc(NCc2ccccc2)cc1`
Result: > 100 µM (inactive)

Query: Requested field: GI50. Item: `Oc1c(Br)cc(CN(Cc2cc(Br)c(O)c(Br)c2)C2CCCCC2)cc1Br`
Result: > 100 µM (inactive)

Query: Can you share its GI50? I mean this compound: NC(=O)Cc1nc2c(N)ncnc2n1C1OC(CO)C(O)C1O (stereo unspecified)
Result: > 100 µM (inactive)

Query: Give its GI50 value. Item: O=C(N/N=C1\C(=O)N(c2nccs2)C(=O)C(=O)C1c1nc2ccccc2s1)c1ccccc1O (stereo unspecified)
Result: > 100 µM (inactive)

Query: Entry `CN(NC(=O)c1ccco1)C1=NCCN1` : reported GI50 = ?
Result: > 100 µM (inactive)

Query: Would you mind telling me what GI50 value was observed for `Cc1ccc(C)c2c1n1c(=O)n(C)c(=O)n21` ?
Result: > 100 µM (inactive)

Query: Looking for the measured GI50 of `CCCc1cc(-c2ccc(-c3cc(CCC)c(C=O)[nH]3)s2)[nH]c1C=O` , can you help?
Result: 2.18 µM (inactive)

Query: Can you share its GI50? I mean this compound: C#CCN(N=O)C(=O)NC(CCCCNC(=O)OCc1ccccc1)C(=O)OCc1ccccc1 (stereo unspecified)
Result: 21.2 µM (inactive)

Query: // returns reported GI50 for input `O=C(Cc1ccccc1)NCCc1ccc(O)c(O)c1`
Result: > 100 µM (inactive)

Query: Find the recorded GI50 belonging to `COc1ccc2c([nH]c3cc(O)c(C)cc32)c1CC=C(C)C` and report it.
Result: 7.24 µM (inactive)

Query: What measured GI50 goes with `COc1ccc(C(=O)Oc2c(C#N)sc3c2c(=O)n(-c2ccccc2)c(=S)n3-c2ccccc2)cc1` ?
Result: 22.2 µM (inactive)
